# testSystem: UniProt P21453
# protocolDetails: direct activation of human S1P1 – cell-based, agonist mode, 60K MLSMR set, dose response (AID 468)
metric: log10 of EC50 (log10 of the value in µM)

• COC(=O)c1cc(NCc2ccccc2F)ccc1N1CCOCC1 = 0.95
• CCc1c(C)sc(NC(=O)c2cc(-c3ccco3)on2)c1C#N = 0.62
• CCCC(=O)Nc1ccc(-c2nc3cc(C)ccc3o2)cc1 = 0.78
• COc1ccccc1-c1nc(-c2cccc(C)c2)no1 = 0.13
• Clc1ccc(OCCN2CCN(c3ncnc4sccc34)CC2)cc1 = -0.97
• CCOc1ccc(Cc2nc(-c3nonc3N)no2)cc1OCC = 0.96
• Cc1cc(C(=O)CSc2nnnn2C)c(C)n1-c1cccc(F)c1 = 0.35
• Clc1ccc(OCc2nc(-c3ccncc3)no2)c(Br)c1 = 0.59
• Cc1ccc(-c2csc3ncnc(Sc4nnc(CN5CCCCCC5=O)o4)c23)cc1 = 0.37
• CCC(NCc1ccc2c(c1)OCO2)=C1C(=O)NC(=O)N(C2CCCCC2)C1=O = 0.83
• CCOc1ccc(S(=O)(=O)n2cnc3cc(C)c(C)cc32)cc1 = 0.83
• CCOc1ccc(-c2nnc(-c3cccnc3)o2)cc1OCC = 0.52
• CCCCn1nnnc1SCC(=O)c1ccc(C)c(C)c1 = 0.78
• O=C(CCc1nc(-c2ccccc2F)no1)Nc1ccc(Oc2ccccc2)cc1 = 0.69
• O=C(Nc1cccc(C(F)(F)F)c1)N1CCC(c2nc(-c3ccc(F)cc3)no2)CC1 = 0.87
• Cn1c(C(=O)N2CCCc3ccccc32)cc2sccc21 = 0.25
• O=C(CSc1nnc(-c2cc3ccccc3cc2O)n1Cc1ccco1)c1ccc(F)cc1 = 1.30
• N#Cc1ccc(NC(=O)Nc2ccc(Cl)cc2)cc1 = 0.97
• Cc1nc(NC(C)c2ccccc2)c2oc3ccccc3c2n1 (stereo not drawn) = 0.84
• COCCn1c(C)cc(C(=O)CSc2nnc(-c3cccnc3)n2-c2ccccc2F)c1C = 0.27
• Cc1ccc2[nH]c3c(N4CCCCCC4)ncnc3c2c1 = 0.62
• CCCOC(=O)c1ccc(OCC(O)Cn2c(C)nc3ccccc32)cc1 (stereo not drawn) = 0.91
• CCc1cc(-c2n[nH]cc2-c2ccc3c(c2)OCO3)c(O)cc1O = 0.78
• COc1ccccc1-c1cc(C(=O)Nc2ccccc2SC)no1 = 0.80
• Cc1cc2nc(-c3ccc(NC(=O)C(C)C)cc3)oc2cc1C = 0.48
• O=C(NCc1ccccc1)N1CCN(c2ccc(Cl)c(Cl)c2)CC1 = 0.85
• COc1ccc(-c2nc(-c3ccc(NC(=O)c4ccncc4)cc3)no2)cc1OC = -0.02
• O=C(Cc1c[nH]c2ccccc12)N1CCc2ccccc21 = 0.97
• O=C(c1cc(-c2ccco2)on1)N1CCN(C(c2ccccc2)c2ccccc2)CC1 = 0.83
• O=C(Nc1ccc(N2CCCCC2)c(Cl)c1)c1nnc[nH]1 = -0.07
• COc1ccc(-c2nc(-c3ccncc3)no2)cc1OC = 0.27
• O=C(CSc1nnc(Cn2nnc3ccccc32)o1)N(Cc1ccc(F)cc1)c1ccccc1 = 0.71

---

# testSystem: Sphingosine 1-phosphate receptor 1 (Homo sapiens, UniProt P21453)
# Sequence (P21453 whole entry): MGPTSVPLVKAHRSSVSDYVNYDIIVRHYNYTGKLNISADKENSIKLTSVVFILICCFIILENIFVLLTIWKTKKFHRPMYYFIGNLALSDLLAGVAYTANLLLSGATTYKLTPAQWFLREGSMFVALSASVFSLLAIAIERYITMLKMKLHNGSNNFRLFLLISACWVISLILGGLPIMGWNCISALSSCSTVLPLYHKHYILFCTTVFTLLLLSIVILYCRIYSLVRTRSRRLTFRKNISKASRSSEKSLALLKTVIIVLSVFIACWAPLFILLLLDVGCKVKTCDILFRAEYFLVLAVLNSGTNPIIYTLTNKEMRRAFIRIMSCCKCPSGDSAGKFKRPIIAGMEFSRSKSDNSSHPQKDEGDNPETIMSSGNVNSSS
# protocolDetails: direct activation of human S1P1 – cell-based, agonist mode, 60K MLSMR set, dose response (AID 468)
pEC50: −log10 of the molar value.
Listed here: items and their measured pEC50.
metric: pEC50

- Cc1nn(Cc2ccc(Cl)c(Cl)c2)c(C)c1NC(=O)c1cc(-c2ccco2)on1: 5.25
- O=C(Nc1ccc(Cl)cc1)N1CCC(c2nc(-c3ccc(F)cc3)no2)CC1: 5.30
- CS(=O)(=O)n1nc(OC(=O)c2cccc3ccccc23)cc1N: 5.03
- Clc1ccc(OCc2nnc(SCc3nc4ccccc4[nH]3)n2Cc2ccco2)cc1: 5.12
- Cc1ccc(S(=O)(=O)Nc2ccc3ncccc3c2)cc1: 5.11
- Brc1ccc2ncnc(Nc3ccc(N4CCOCC4)cc3)c2c1: 5.12
- CC(=O)Nc1cc(OC(C)=O)c2nonc2c1OC(C)=O: 5.12
- NC(=O)c1ccc(OCC(F)(F)C(F)(F)C(F)(F)C(F)(F)C(F)(F)C(F)F)cc1: 5.10
- COc1ccc(-n2c(O)cc(Sc3nnc[nH]3)c2O)c(OC)c1: 4.78
- CCc1c(C)nc2ncnn2c1NCCc1ccc(OC)cc1: 5.08
- CCOC(=O)CN(C(=O)CSc1nnc(-c2cccc(OC)c2)o1)c1ccc(F)cc1: 5.50
- Cc1[nH]nc2c1C1(C(=O)N(Cc3ccc(Cl)cc3)c3ccccc31)C(C#N)C(=N)O2 (centres undefined): 4.24
- O=c1c(-c2ccc3c(c2)OCCO3)c(C(F)(F)F)oc2cc(O)cc(O)c12: 5.38
- CCc1ccc(S(=O)(=O)NCCc2csc(-c3ccccc3)n2)s1: 5.06
- O=S1(=O)Nc2c(ccc3cccnc23)-c2ccccc21: 5.40
- C=CS(=O)(=O)c1ccc(Oc2ccc(S(=O)(=O)C=C)cc2)cc1: 5.56
- O=S(=O)(NCc1cn2ccsc2n1)c1ccc(Oc2ccccc2)cc1: 5.22
- Oc1ccc(-c2nc(-c3ccc(O)c(O)c3)cs2)cc1: 4.92
